target.entity: T1, FEM1B-EB-EC ternary complex with FEM1B D356A/V391A/Q394A/F501A/H502A (human, UniProt Q9UK73 1-627; Q15370 1-118; Q15369 17-112, D356A | V391A | Q394A | F501A | H502A)
T1 construct: FEM1B, human, full length, quintuple mutant of the aromatic (psi) pocket; elongin B (EB, ELOB), human; elongin C (EC, ELOC), human; also called 5A mutant; FEM1BFL-EB-EC D356A/V391A/Q394A/F501A/H502A; source: E. coli BL21(DE3), purified in the same way as the WT protein; copies: + +
assay.method.text: ITC; SUMO fusion peptides (0.5-1 mM) titrated into 50 μM FEM1B-EB-EC in the cell, 25 °C, 20 mM Tris, 200 mM NaCl, pH 7.5, 1 mM EDTA; one-site binding model
test.conditions: both partners purified
measurement.type: pKd
Note: pKd values are expressed as the negative base-10 logarithm of concentration in M.

Q: Find the measured pKd of VFSDLKNESGQEDKKRLLLGLDR (CDK5R1, human, C-terminal 23 residues; also called CDK5R1 23-mer; 23-aa CDK5R1 C-degron; source: E. coli BL21(DE3), purified (Ni-NTA; SEC for ITC); not shown: SUMO with (GGGS)2 linker, N-terminal, kept) [SUMO-(GGGS)2-CDK5R1 285-307 WT] and report it.
Ans: 5.24
